Reported Kd values for the following binders.
Target: T1, cSNK:BSA conjugate (bovine, head-to-tail cyclized; conjugated to BSA carrier)
T1 construct: also called BSA-cSNK
T1 sequence (P02769 25-607 limits assumed): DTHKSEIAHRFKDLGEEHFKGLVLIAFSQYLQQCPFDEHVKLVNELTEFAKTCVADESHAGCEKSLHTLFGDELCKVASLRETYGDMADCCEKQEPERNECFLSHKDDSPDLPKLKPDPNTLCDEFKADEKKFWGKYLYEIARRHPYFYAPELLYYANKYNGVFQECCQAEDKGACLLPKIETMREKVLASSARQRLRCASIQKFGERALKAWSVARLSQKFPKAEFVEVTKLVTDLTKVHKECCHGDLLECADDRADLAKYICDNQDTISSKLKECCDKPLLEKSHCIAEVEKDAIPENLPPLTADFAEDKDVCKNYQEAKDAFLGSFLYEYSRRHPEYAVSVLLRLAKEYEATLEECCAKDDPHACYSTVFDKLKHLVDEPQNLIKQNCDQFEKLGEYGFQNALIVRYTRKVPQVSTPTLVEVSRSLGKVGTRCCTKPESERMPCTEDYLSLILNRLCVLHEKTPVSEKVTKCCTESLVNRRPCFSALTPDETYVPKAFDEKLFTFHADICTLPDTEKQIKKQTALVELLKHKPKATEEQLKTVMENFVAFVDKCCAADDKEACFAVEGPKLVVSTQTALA
Test: BLI 2:1 fit, site 1; 12.5 nM row

BINDER	Kd (nM)
murine monoclonal antibody 5E3 (antibody, V domains shown, mouse antibody of the 5E3 hybridoma; also called murine 5E3; m5E3) VH: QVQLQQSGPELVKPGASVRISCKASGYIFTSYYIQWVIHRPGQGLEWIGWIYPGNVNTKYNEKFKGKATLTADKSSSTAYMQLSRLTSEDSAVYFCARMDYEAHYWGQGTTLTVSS VL: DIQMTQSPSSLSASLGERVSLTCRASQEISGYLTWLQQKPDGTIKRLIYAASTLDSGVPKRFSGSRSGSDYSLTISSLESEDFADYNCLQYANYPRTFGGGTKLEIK	0.33
hu5E3-IgG1 (antibody, V domains shown, human IgG1/kappa; also called humanized 5E3 IgG1; IHA variant) VH: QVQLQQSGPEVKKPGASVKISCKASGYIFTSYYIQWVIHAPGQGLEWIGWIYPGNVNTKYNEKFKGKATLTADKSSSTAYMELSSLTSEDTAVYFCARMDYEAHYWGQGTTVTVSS VL: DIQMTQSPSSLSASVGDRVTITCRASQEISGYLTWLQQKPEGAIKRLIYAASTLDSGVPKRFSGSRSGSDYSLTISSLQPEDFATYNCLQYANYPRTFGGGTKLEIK	0.463
hu5E3-IgG4 (antibody, V domains shown, human IgG4/kappa; also called humanized 5E3 IgG4) VH: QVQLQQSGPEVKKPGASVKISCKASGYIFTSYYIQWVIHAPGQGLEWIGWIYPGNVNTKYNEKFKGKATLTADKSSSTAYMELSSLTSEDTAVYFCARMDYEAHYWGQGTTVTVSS VL: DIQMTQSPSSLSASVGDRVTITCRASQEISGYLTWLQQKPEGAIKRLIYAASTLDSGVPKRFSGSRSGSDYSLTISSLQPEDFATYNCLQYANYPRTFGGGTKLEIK	0.633
hu5E3-IgG2 (antibody, V domains shown, human IgG2/kappa; also called humanized 5E3 IgG2) VH: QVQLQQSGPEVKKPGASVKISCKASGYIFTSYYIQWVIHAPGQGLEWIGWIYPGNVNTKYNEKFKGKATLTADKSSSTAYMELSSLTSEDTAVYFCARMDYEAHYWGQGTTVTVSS VL: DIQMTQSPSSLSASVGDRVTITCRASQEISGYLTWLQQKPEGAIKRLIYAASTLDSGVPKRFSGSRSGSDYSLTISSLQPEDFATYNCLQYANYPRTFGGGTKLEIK	1.18

These entries and their values trace back to patent US20170008955A1.
